- Study System: Amine oxidase [flavin-containing] A (Homo sapiens, UniProt P21397)
- Sequence (P21397 whole entry): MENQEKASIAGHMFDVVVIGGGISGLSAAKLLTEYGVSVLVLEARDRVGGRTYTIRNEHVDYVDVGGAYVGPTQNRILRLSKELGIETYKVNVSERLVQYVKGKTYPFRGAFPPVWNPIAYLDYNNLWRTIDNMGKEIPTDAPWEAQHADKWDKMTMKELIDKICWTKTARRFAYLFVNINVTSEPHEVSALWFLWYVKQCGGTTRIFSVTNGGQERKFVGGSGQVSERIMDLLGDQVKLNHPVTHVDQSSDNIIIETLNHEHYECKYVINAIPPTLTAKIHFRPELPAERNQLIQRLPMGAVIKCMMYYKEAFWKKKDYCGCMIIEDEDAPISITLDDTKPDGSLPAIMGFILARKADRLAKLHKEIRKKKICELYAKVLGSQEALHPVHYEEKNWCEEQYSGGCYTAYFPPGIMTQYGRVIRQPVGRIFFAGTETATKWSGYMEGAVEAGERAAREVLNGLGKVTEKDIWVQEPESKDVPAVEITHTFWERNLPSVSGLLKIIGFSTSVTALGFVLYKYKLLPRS
- Run Description: Inhibition of recombinant human MAO-A using kynuramine as substrate assessed as 4-hydroxyquinoline production after 30 mins by fluorescence spectrophotometry analysis
Measured Endpoint: log10(IC50) (log10 of the value in nM)
Kindly note that the scale is log10 and the underlying IC50 is in nM.

Here is how some compounds turned out for log10(IC50).
| Chemical String | Study System | log10(IC50) |
| --- | --- | --- |
| O=C1CCCc2cc(OCc3ccc(F)cc3)ccc21 | Amine oxidase [flavin-containing] A (Homo sapiens, UniProt P21397) | 2.42 |
| O=C1CCCc2cc(OCCCc3ccccc3)ccc21 | Amine oxidase [flavin-containing] A (Homo sapiens, UniProt P21397) | 3.06 |
| O=C1CCCc2cc(OCCc3ccccc3)ccc21 | Amine oxidase [flavin-containing] A (Homo sapiens, UniProt P21397) | 3.12 |
| O=C1CCCc2cc(OCc3ccc(C(F)(F)F)cc3)ccc21 | Amine oxidase [flavin-containing] A (Homo sapiens, UniProt P21397) | 2.74 |
| O=C1CCCc2cc(OCc3ccc(Cl)cc3)ccc21 | Amine oxidase [flavin-containing] A (Homo sapiens, UniProt P21397) | 2.38 |

Provide reported log10(IC50) for each item, in the same order as listed.
1. O=C1CCCc2cc(OCc3cccc(Cl)c3)ccc21
2. O=C1CCCc2cc(OCc3cccc(I)c3)ccc21
3. Cc1ccc(COc2ccc3c(c2)CCCC3=O)cc1
4. O=C1CCCc2cc(OCc3ccc(Br)cc3)ccc21

2.32
3.11
3.32
2.49

Provide reported log10(IC50) for each item, in the same order as listed.
1. O=C1CCCc2cc(O)ccc21
2. N#Cc1ccc(COc2ccc3c(c2)CCCC3=O)cc1

1. 4.64
2. 2.82
